Target: HLA-A*02:01 (Homo sapiens, UniProt P04439, D140Y/D185E/D98H/E176V/E277Q/G131W/G231S/I119V/I121R/I166T/I218V/L300P/L318F/N151K/N90K/P208A/P217A/Q86G/Q94H/R138H/R169H/T345S)
Assay: MHC binding assay (UV-ligand exchange, β2m ELISA, peptide exchange yield)
Conditions: MHC class I binding score; binding to HLA-A*02:01 ranged by peptide exchange yield (UV-ligand exchange, β2m ELISA)
Assay metric: Peptide exchange

INSERT INTO results (substance, observed_value) VALUES
  ('582 (TLCDVILMV; listed as Homo sapiens) [compound 582]', '″+++″ (≧50% = +++)'),
  ('174 (ALAQYLITA; listed as Homo sapiens) [compound 174]', '″+++″ (≧50% = +++)'),
  ('355 (SIQQSIERLLV; listed as Homo sapiens) [compound 355]', '″++″ (≧20% = ++)'),
  ('251 (ALYTGFSILV; listed as Homo sapiens) [compound 251]', '″++″ (≧20% = ++)'),
  ('362 (TLYGLSVLL; listed as Homo sapiens) [compound 362]', '″+++″ (≧50% = +++)'),
  ('150 (RLWEEGEELEL; listed as Homo sapiens) [compound 150]', '″+++″ (≧50% = +++)'),
  ('102 (YLFESEGLVL; listed as Homo sapiens) [compound 102]', '″+++″ (≧50% = +++)'),
  ('600 (ALAAPDIVPAL; listed as Homo sapiens) [compound 600]', '″+++″ (≧50% = +++)'),
  ('47 (ILLSVPLLVV; listed as Homo sapiens) [compound 47]', '″++″ (≧20% = ++)'),
  ('78 (SLFSSLEPQIQPV; listed as Homo sapiens) [compound 78]', '″+++″ (≧50% = +++)'),
  ('173 (LLDSASAGLYL; listed as Homo sapiens) [compound 173]', '″+++″ (≧50% = +++)'),
  ('219 (KLSDIGITV; listed as Homo sapiens) [compound 219]', '″+++″ (≧50% = +++)');
